Target: T1, full length recombinant human 2N4R tau (human, UniProt P10636 1-758)
T1 construct: bought from rPeptide; pHrodo Red maleimide-labelled where it stands in uptake assays; also called tau1-441; full length tau
T1 sequence (P10636 other isoform, or with tags, fused parts or gaps limits assumed): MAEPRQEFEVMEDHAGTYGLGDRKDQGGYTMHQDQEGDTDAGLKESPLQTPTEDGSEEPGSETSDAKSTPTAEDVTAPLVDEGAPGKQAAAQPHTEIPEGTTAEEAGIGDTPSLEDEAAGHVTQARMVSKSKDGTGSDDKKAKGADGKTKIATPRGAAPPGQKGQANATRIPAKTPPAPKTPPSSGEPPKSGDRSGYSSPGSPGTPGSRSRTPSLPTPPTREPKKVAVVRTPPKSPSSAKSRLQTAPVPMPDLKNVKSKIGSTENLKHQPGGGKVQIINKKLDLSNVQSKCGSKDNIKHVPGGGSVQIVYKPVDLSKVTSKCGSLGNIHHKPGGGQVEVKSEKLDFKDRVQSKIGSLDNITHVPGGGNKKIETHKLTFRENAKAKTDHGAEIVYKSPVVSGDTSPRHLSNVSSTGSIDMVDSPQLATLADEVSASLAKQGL
Test: SPR SCK, IgG on Protein A, tau in flow
measure: Relative KD (to VH0VK0)
Please give only the number in your answer, with no unit.

For record #44 VH5VK3 humanised hIgG1 (antibody, V domains shown, also called VH5Vκ3) VH: QVQLQESGPGLVKPSETLSLTCTVSGIDLSSYAMAWVRQAPGKGLEWIGCIDRRGGTFYASWVKGRFTISRDNSKNTLDLQMTSLTAEDTATYYCARDSGAFDPWGQGTLVTVSS VL: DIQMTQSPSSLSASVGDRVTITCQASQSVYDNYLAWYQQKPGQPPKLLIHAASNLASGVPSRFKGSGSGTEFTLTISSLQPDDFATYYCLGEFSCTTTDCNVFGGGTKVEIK the listed Relative KD (to VH0VK0) is 3.71

For record #44 VH1VK1 humanised hIgG1 (antibody, V domains shown, also called VH1Vκ1) VH: QSVQESGGGLVKPSETLSLTCTVSGIDLSSYAMAWVRQAPGKGLEWIGCIDRRGGTFYASWVKGRFTISKTSTTVDLKMTSLTAEDTATYFCARDSGAFDPWGQGTLVTVSS VL: QIVMTQSPSSLSASVGDRVTITCQASQSVYDNYLAWYQQKPGQPPKLLIHAASNLASRVPSRFKGSGSGTEFTLTISSLQCDDFATYYCLGEFSCTTTDCNVFGGGTEVVIK the listed Relative KD (to VH0VK0) is 0.83

For record #44 VH1VK4 humanised hIgG1 (antibody, V domains shown, also called VH1Vκ4) VH: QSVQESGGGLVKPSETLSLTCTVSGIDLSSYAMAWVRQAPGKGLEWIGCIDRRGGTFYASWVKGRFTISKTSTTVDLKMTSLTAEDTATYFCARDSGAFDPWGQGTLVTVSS VL: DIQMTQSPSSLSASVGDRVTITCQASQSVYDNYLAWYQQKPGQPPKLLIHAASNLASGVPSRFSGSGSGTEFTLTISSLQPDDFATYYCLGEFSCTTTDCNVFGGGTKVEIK the listed Relative KD (to VH0VK0) is 1.08

For record #44 VH0VK0 chimeric human IgG1 (antibody, V domains shown, rabbit VH and VK on human IgG1; also called VH0Vκ0; Clone #44 hIgG1) VH: QSVEESGGRLVTPGTPLTLTCTVSGIDLSSYAMAWVRQAPGKGLEWIGCIDRRGGTFYASWVKGRFTISKTSTTVDLKMTSLTTEDTATYFCARDSGAFDPWGPGTLVTVSS VL: QIVMTQTPSSVSAAVGGTVTIKCQASQSVYDNYLAWYQQKPGQPPKLLIHAASNLASRVPSRFKGSGSGTQFTLTISDVQCDDAATYYCLGEFSCTTTDCNVFGGGTEVVVK the listed Relative KD (to VH0VK0) is 1

For record #44 VH3VK1 humanised hIgG1 (antibody, V domains shown, also called VH3Vκ1) VH: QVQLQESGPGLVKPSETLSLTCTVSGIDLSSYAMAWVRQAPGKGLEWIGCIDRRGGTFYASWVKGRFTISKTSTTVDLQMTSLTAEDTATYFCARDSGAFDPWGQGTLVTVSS VL: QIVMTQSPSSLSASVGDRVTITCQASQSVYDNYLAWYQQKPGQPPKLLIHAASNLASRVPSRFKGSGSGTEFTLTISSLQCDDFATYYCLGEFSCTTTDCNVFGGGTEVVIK the listed Relative KD (to VH0VK0) is 1.14

For record #44 VH2VK1 humanised hIgG1 (antibody, V domains shown, also called VH2Vκ1) VH: QSVQESGPGLVKPSETLSLTCTVSGIDLSSYAMAWVRQAPGKGLEWIGCIDRRGGTFYASWVKGRFTISKTSTTVDLQMTSLTAEDTATYFCARDSGAFDPWGQGTLVTVSS VL: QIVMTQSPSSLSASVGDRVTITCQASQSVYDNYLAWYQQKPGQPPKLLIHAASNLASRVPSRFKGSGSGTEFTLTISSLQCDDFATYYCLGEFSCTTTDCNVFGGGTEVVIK the listed Relative KD (to VH0VK0) is 2.07

For record #44 VH4VK2 humanised hIgG1 (antibody, V domains shown, also called VH4Vκ2; Clone VH4VK2 (C)) VH: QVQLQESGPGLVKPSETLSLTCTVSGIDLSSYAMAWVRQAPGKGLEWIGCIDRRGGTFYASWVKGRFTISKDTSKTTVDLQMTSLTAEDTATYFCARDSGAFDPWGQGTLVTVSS VL: QIVMTQSPSSLSASVGDRVTITCQASQSVYDNYLAWYQQKPGQPPKLLIHAASNLASGVPSRFKGSGSGTEFTLTISSLQPDDFATYYCLGEFSCTTTDCNVFGGGTKVEIK the listed Relative KD (to VH0VK0) is 1.79

For record #44 VH2VK3 humanised hIgG1 (antibody, V domains shown, also called VH2Vκ3) VH: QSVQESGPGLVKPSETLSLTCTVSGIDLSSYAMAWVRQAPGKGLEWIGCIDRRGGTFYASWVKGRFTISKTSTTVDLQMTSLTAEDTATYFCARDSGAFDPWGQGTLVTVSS VL: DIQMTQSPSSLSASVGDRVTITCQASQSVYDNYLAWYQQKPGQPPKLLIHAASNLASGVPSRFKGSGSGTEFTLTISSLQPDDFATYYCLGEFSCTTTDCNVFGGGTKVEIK the listed Relative KD (to VH0VK0) is 1.18

For record #44 VH5VK4 humanised hIgG1 (antibody, V domains shown, also called VH5Vκ4) VH: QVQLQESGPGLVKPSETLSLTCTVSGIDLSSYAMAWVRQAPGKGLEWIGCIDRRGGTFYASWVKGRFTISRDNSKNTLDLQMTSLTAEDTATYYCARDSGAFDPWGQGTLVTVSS VL: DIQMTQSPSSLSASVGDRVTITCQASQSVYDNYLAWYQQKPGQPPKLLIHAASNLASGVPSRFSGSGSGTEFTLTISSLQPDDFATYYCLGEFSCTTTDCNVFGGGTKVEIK the listed Relative KD (to VH0VK0) is 2.51

For record #44 VH2VK2 humanised hIgG1 (antibody, V domains shown, also called VH2Vκ2) VH: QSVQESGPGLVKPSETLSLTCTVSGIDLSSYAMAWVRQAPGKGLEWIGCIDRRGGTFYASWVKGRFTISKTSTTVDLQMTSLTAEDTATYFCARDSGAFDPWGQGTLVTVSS VL: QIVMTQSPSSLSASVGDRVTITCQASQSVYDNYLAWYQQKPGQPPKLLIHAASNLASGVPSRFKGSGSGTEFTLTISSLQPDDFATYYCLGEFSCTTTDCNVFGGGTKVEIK the listed Relative KD (to VH0VK0) is 1.31

Reference source: patent US20250270301A1
